- study.target: T1, human CD4 on cells (SKW3 cells; human PBMCs) (human, UniProt P01730 26-458)
- T1 construct: whole, on cells; SKW3 CD4 knockout cells served as the negative cell line in the primary screen; also called hCD4; huCD4
- test.description: FACS binning on SKW3 cells; competitor OKT4-A488; background 2163, max binding 8200
test.readout: OKT4-A488 signal with supernatant
In your answer, state the number alone without any accompanying words.

75110_06K03A (antibody, V domains shown, Tested as non-clonal AlivaMab Mouse Kappa hybridoma supernatant (detected with anti-mouse Fc gamma and anti-human kappa)) VH: QVQLQESGPGLVKPSETLSLTCTVSGGSISTYYWSWIRQPAGKGLEWIGRINTSGSTTYNPSLKSRVTMSVDTSKNQFSLKLSSVTAADTAVYYCARELERYYYYGMDVWGQGTTVTVSS VL: DIQMTQSPSSLSASVGDRVTITCQASQDISNYLNWYQQKPGKAPKLLIYYASILETGVPSRFSGSGSGTDFTFTISSLQPEDIATYYCQQYDSLPLTFGGGTKVEIK = 9140

Please turn your attention to the following entry.
-- ask Item 75110_08D24A (antibody, V domains shown, Tested as non-clonal AlivaMab Mouse Kappa hybridoma supernatant (detected with anti-mouse Fc gamma and anti-human kappa)) VH: QVQLQESGPGLVKPSETLSLTCTVSGGSISGFYWSWIRQPAGKGLEWIGRIYTSENTNYNPSLKSRVTMSVDTSKNQFSLKLSSVTAADTAVYYCARDREGYYYYGMDVWGQGTTVTVSS VL: DIQMTQSPSSLSASVGDRVTITCQASQDISNYLNWYQQKPGKAPKLLIYAASNLETGVPSRFSGSGSGTDFTFTISSLQPEDIATYYCQQYDSLPITFGQGTRLEIK has what recorded OKT4-A488 signal with supernatant?
-- reply 7930

Cited source: patent US20220112288A1
